Source: PubChem BioAssay

- TESTED_TARGET: Fibroblast growth factor 10 (Homo sapiens)
- ASSAY_NOTES: FGF10 binders on small-molecule microarrays, primary screen, biochemical, small-molecule microarray, 635 nm fluorescence (AID 1102)
- COND: FGF10 binding, fluorescence 635 nm, higher = more signal
Entries and their measured composite z-score follow.
Enter a number only.

Recorded composite z-score, per entry:
COMPOUND | composite z-score
CCCC[C@@H](O)C1=C(C)Cn2c(=O)n(-c3ccccc3)c(=O)n2[C@H]1CO | 0.132
O=C1OCCC/C=C\[C@H]2OC34C=CCN(Cc5ccccc5)C(=O)[C@H]3N(CCO)C(=O)[C@@H]4C12 (stereo not given in full) | 0.049
COc1cc(CO)cc(I)c1O[C@H]1C=C(C(=O)NCCO)C[C@@H](N(CCN2CCOCC2)C(=O)C2CCCO2)[C@@H]1O (stereo not given in full) | 0.322

Input: For the record `O=C1O[C@H](c2ccccc2)[C@H](c2ccccc2)N2[C@H]1[C@@H](C(=O)Nc1nc3ccccc3s1)[C@]1(C(=O)Nc3ccccc31)[C@H]2c1ccccc1OCCO` , what value of composite z-score is listed for Fibroblast growth factor 10 (Homo sapiens)?
Output: 0.475

Input: // repeat for CC[C@H]1C2=C3C(CC[C@H]4C(OCc5ccc(F)cc5C(F)(F)F)OC[C@](C)([C@@H]34)N(C(=O)OC(C)(C)C)C2)C(COC(C)=O)C1COC(C)=O (stereo not given in full) and report
Output: 0.402

Input: // repeat for `COC(=O)C(CC#Cc1ccc2c(c1)[C@]1(C(=O)N2)[C@H](C(=O)N2CCN(c3ncccn3)CC2)[C@H]2C(=O)O[C@H](c3ccccc3)[C@H](c3ccccc3)N2[C@@H]1c1ccc(O)cc1)C(=O)OC` and report
Output: 1.09

Input: // repeat for `COC(=O)C(CC#Cc1ccc2c(c1)[C@]1(C(=O)N2)[C@H](c2ccccc2OCCO)N2[C@H](c3ccccc3)[C@H](c3ccccc3)OC(=O)[C@H]2[C@@H]1C(=O)N1CCN(c2ncccn2)CC1)C(=O)OC` and report
Output: 0.683

Input: // repeat for CC1(C)OB(/C=C\CC(OC(=O)c2ccncc2)c2ccccc2)OC1(C)C (stereo not given) and report
Output: -0.951

Input: // repeat for CC1C2C(CCCO)=CC(C3C(=O)N(C(N)=O)C(=O)C23)N1Cc1cccc(OC(F)(F)F)c1 (stereo not given) and report
Output: 0.646

Input: // repeat for `CCCNC(=O)[C@@]1(Sc2ccc(C)cc2)CC(=O)N(Cc2cc(C(F)(F)F)cc(C(F)(F)F)c2)[C@@H]1c1ccc(CO)cc1` and report
Output: 0.0468

Input: // repeat for `COc1ccc(CCNC(=O)[C@@H]2c3ccccc3C(=O)N(C(C)C)[C@H]2c2ccc(CO)cc2)cc1` and report
Output: -1.05

* * *

- Test system: Fibrinogen (Alexa647-labelled)
- ASSAY_NOTES: fibrinogen binders on compound microarrays, profiling panel, artefact control for SMM control-protein annotation, biochemical, small-molecule microarray, 635/667 nm fluorescence (AID 1131);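 further: z-score merges 667 nm fluorescence with per-spot signal-to-noise over triplicate slides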
- COND: fibrinogen-A647 binding fluorescence, higher = more signal
Lab note: anything with composite z-score at or over 0.2 counts as yes; the rest go in no.

Please review the following examples before continuing.
COMPOUND | TESTED_TARGET | ASSIGNED_CLASS
C=CCNC(=O)[C@H]1[C@@H]2C(=O)O[C@@H](c3ccccc3)[C@@H](c3ccccc3)N2[C@@H](c2ccc(OCCO)cc2)[C@]12C(=O)Nc1ccc(C#Cc3ccc(OC)cc3)cc12 | Fibrinogen (Alexa647-labelled) | yes
CCOC(=O)C=C1C[C@@H](c2cccc([N+](=O)[O-])c2)O[C@@H](c2cccc([N+](=O)[O-])c2)O1 | Fibrinogen (Alexa647-labelled) | yes
CN1C(=O)C2C=CC(C(O)c3ccc(I)cc3)N(N(c3ccccc3)c3ccccc3)C2C1=O (stereo not drawn) | Fibrinogen (Alexa647-labelled) | yes

Input: Has `COC(=O)C(CC#Cc1ccc2c(c1)[C@]1(C(=O)N2)[C@H](C(N)=O)[C@H]2C(=O)O[C@H](c3ccccc3)[C@H](c3ccccc3)N2[C@@H]1c1ccccc1OCCO)C(=O)OC` a recorded composite z-score greater than or equal to 0.2?
Output: yes

Input: // repeat for `COc1cccc(C)c1NC(=O)O[C@H]1[C@H](OC(=O)Nc2ccc3c(c2)OCO3)[C@H](OC(=O)Nc2ccc3c(c2)OCO3)[C@@H](OC)O[C@@H]1CO` and report
Output: yes

Input: // repeat for `COc1ccc(-c2cc3c(c(CCc4ccccc4)n2)[Si](C(C)C)(C(C)C)O[C@H]3c2ccccc2)cn1` and report
Output: yes

Input: // repeat for `O=C1O[C@H](c2ccccc2)[C@H](c2ccccc2)N2[C@H]1[C@@H](C(=O)O)[C@]1(C(=O)Nc3ccc(C#CC4(O)CCCCCC4)cc31)[C@H]2c1ccccc1OCCO` and report
Output: yes

Input: // repeat for CC(C)c1ccc(NN2C(C(O)C(C)c3ccccc3)C=CC3C(=O)N(c4ccccc4)C(=O)C32)cc1 (stereo not drawn) and report
Output: yes

Input: // repeat for `COc1ccc([Si](C)(C)[C@H]2[C@H](CC(=O)N(CCO)Cc3ccccc3)O[C@@]3(C(=O)N(Cc4ccc(N5C(=O)c6cccc7cccc5c67)cc4)c4ccccc43)[C@@H]2C)cc1` and report
Output: yes

Input: // repeat for `C=C(COC)C(=O)CC[C@H](OC(C)=O)c1ccc(CO)o1` and report
Output: no

Input: // repeat for `CCCCC(=C=CC[C@H](O)c1cccc(OCCO)c1)C[C@H](O)c1cc(Cl)cc(Cl)c1O` and report
Output: yes

Input: // repeat for `C=CCOC(=O)[C@H]1[C@@H]2C(=O)O[C@@H](c3ccccc3)[C@@H](c3ccccc3)N2[C@@H](c2ccc(OCCOC(=O)[C@H]3C[C@H]4C(=O)NCC(=O)N4[C@H]3c3ccc(O)cc3)cc2)[C@]12C(=O)Nc1ccccc12` and report
Output: yes

Input: // repeat for CC(C)c1ccc(NN2C(C(O)C3CCCCC3)C=CC3C(=O)N(c4ccccc4)C(=O)C32)cc1 (stereo not drawn) and report
Output: yes

Input: // repeat for C[C@]12C(=O)N(CCO)[C@@H]3C(=O)N(c4ccc(Cl)cc4)CC=CC31O[C@@H]1/C=C\CCCOC(=O)C12 (stereo partly drawn) and report
Output: no

Input: // repeat for `C=CC[C@H](O)c1ccc(O)c2ccccc12` and report
Output: yes

Input: // repeat for `C#CCN(C(=O)OC(C)(C)C)[C@H](CO)c1ccccc1` and report
Output: no

Input: // repeat for CCCCCN1CC=CC23O[C@@H]4/C=C\CCCOC(=O)C4[C@H]2C(=O)N(CCCCCO)[C@@H]3C1=O (stereo partly drawn) and report
Output: no

Input: // repeat for `O=C(CS)NCCCCCCNC(=O)[C@H]1C[C@H]2C(=O)NCC(=O)N2[C@H]1c1cccc(OCCO)c1` and report
Output: yes

Input: // repeat for `O=C1O[C@@H](c2ccccc2)[C@@H](c2ccccc2)N2[C@@H](c3ccc(OCCO)cc3)[C@]3(C(=O)Nc4ccc(C#CC5=CCCCC5)cc43)[C@@H](C(=O)Nc3nc4ccccc4s3)[C@H]12` and report
Output: yes

Input: // repeat for `CN(C)CCCCNC(=O)[C@H]1C[C@H]2C(=O)N[C@@H](CCCCN(C)C)C(=O)N2[C@H]1c1ccc(O)cc1` and report
Output: no

Input: // repeat for [N-]=[N+]=Nc1ccccc1C[C@@]1(C(=O)NCC(O)CO)N=C(c2ccc(OCCCO)cc2)O[C@@H]1c1ccccc1N=[N+]=[N-] (stereo partly drawn) and report
Output: yes

Input: // repeat for `CCOC(=O)C[C@H]1[C@H](OC(=O)c2cc3ccccc3oc2=O)[C@@H](NC(=O)c2ccc(-c3ccccc3)cc2)c2cc(OCCCO)ccc2N1C(=O)Cc1ccc(OC)cc1` and report
Output: yes

Input: // repeat for `COc1ccc([Si](C)(C)[C@@H]2[C@@H](CC(=O)N3CCC[C@H]3CO)O[C@]3(C(=O)N(Cc4cccc(N5C(=O)c6cccc7cccc5c67)c4)c4ccccc43)[C@H]2C)cc1` and report
Output: yes

Input: // repeat for `C[C@]1(C(=O)O)c2ccccc2C(=O)N(Cc2cc(C(F)(F)F)cc(C(F)(F)F)c2)[C@H]1c1ccc(CO)cc1` and report
Output: yes

Input: // repeat for `C=C[C@H](C)[C@@H](OC(=O)Nc1ccc(SC)cc1)c1ccc(OCCO)cc1` and report
Output: no

Input: // repeat for `CO[C@H]1O[C@H](CO)[C@@H](OC(=O)Nc2cccc(F)c2)[C@H](OC(=O)c2cc3ccccc3[nH]2)[C@H]1OC(=O)c1cc2ccccc2[nH]1` and report
Output: yes

Input: // repeat for COC(=O)C1(CC(C)C)C=C2C(=C(C)C(=O)C2C)CN1 (stereo not drawn) and report
Output: no
